Origin of measurements: PubChem BioAssay (NCI)

Tested on: SK-OV-3 ovarian
testSummary: NCI-60 one-dose screen, 48 h (100 = growth as untreated, 0 = no growth, -100 = all killed)
details: 10 µM unless noted
Compounds without any hit were thinned out: in the full panel of roughly 83,000, 20% have a hit.
assayEndpoint: growth (%)
# number only, unit % dropped from output

## Input GET /values?readout=growth&item= `Oc1nc(NCc2ccccc2)sc1/C=C1\C=Nc2ncccc21`
## Output 53.9

## Input GET /values?readout=growth&item= `N=C(N)c1ccc(OCCSCCOc2ccc(C(=N)N)cc2)cc1`
## Output 82

## Input GET /values?readout=growth&item= `Fc1cccc(CNc2c3ccccc3nc3ccccc23)c1`
## Output 51.1

## Input GET /values?readout=growth&item= `N#Cc1ccc(/C=C/c2cn(-c3ccccc3)nc2-c2cccc([N+](=O)[O-])c2)cc1`
## Output 69.8

## Input GET /values?readout=growth&item= `O=C(C[C@]1(O)C(=O)Nc2ccc(Br)cc21)c1ccco1`
## Output 95.2

## Input GET /values?readout=growth&item= `CNCC[C@H](Oc1cccc2ccccc12)c1cccs1`
## Output 109

## Input GET /values?readout=growth&item= `COC(=O)c1ccc2cc(OC)c(OC)cc2c1`
## Output 118

## Input GET /values?readout=growth&item= `O=c1oc2c(cnc3ccccc32)cc1-c1cccc(Cl)c1`
## Output 105

## Input GET /values?readout=growth&item= `CCN(CC)CCN1C(=O)c2c(c3c4ccccc4[nH]c3c3ccc4ccccc4c23)C1=O`
## Output 83.1

## Input GET /values?readout=growth&item= `CN1CCN(c2ccc(NC3=CC(=O)c4ncncc4C3=O)cc2)CC1`
## Output -63.7

## Input GET /values?readout=growth&item= `CNC(=O)c1cc(Oc2ccc3c(c2)sc2nc(-c4ccc(Cl)c(C(F)(F)F)c4)cn23)ccn1`
## Output 78

## Input GET /values?readout=growth&item= `COc1nc(/C=C\Nc2ccc3c(c2)OCCOCCOCCOCCO3)nc(OC)n1`
## Output 106

## Input GET /values?readout=growth&item= COC1C(O)CC(OC2CC(OC3CC(O[C@@H]4C(=O)c5c(cc6cc(OC7CC(OC8CC(O)C(O)C(C)O8)C(O)C(C)O7)c(C)c(O)c6c5O)CC4[C@H](OC)[C@@H](O)C(C)=O)OC(C)C3O)OC(C)C2O)OC1C (stereo partly specified)
## Output 22.2

## Input GET /values?readout=growth&item= `NCCCNc1nc2ccccc2c2c(=O)c3cc(Cl)ccc3sc12`
## Output 77.6

## Input GET /values?readout=growth&item= `O=C(NNc1nc2cc(F)ccc2n2c(CN3CCOCC3)ccc12)c1ccccc1`
## Output 27.5

## Input GET /values?readout=growth&item= `CN1c2ccccc2S(=O)(=O)n2c(SCC(=O)Nc3nc4ccc(F)cc4s3)nnc21`
## Output 112

## Input GET /values?readout=growth&item= `CS(=O)(=O)Nc1cc(-c2ccc3ncnc(Nc4ccc(OCc5ccccn5)c(Cl)c4)c3c2)cnc1Cl`
## Output -27.1

## Input GET /values?readout=growth&item= `CSc1nc(-c2ccco2)c(C#N)c(=O)n1C`
## Output 97

## Input GET /values?readout=growth&item= `N#Cc1c(-c2ccccc2)nc2c(c(-c3ccccc3)nn2-c2ccccc2)c1-c1ccc(N2CCCCC2)cc1`
## Output 104

## Input GET /values?readout=growth&item= `CNC(=O)c1cc(Oc2ccc3c(c2)sc2nc(-c4ccc(NC(=O)[C@@H](NC(=O)OC)C(C)C)cc4)cn23)ccn1`
## Output 98

## Input GET /values?readout=growth&item= `CC(=O)O[C@H]1CC[C@]2(C)[C@H]3CC=C4[C@@H]5CC(C)(C)CC[C@]5(C(=O)N5CCN(CCC#N)CC5)CC[C@@]4(C)[C@]3(C)CC[C@H]2C1(C)C`
## Output 60.6

###

Tested on: ACHN renal
testSummary: NCI-60 one-dose screen, 48 h
details: 10 µM unless noted
This is part of a sample that, as a whole, favours compounds with a hit. Of some 83,000 tested, about 20% had one in any assay. Activity calls are given as the source filed them. Rule for the calls: active = growth percent below 10; inactive = the rest.
Write down one outcome, taken from active, inactive

## Input Tell me the recorded outcome of this test for `CC(C)n1c2ccc(Br)cc2c2c3c(c4c5ccccc5ccc4c21)C(=O)NC3=O` .
## Output inactive

## Input Tell me the recorded outcome of this test for `COc1cc(OC)c2c(=O)c3c(CC=C(C)C)cc(OC)c(O)c3oc2c1` .
## Output inactive

## Input Tell me the recorded outcome of this test for `COc1ccc(-c2cc(-c3cn(-c4cccc(Cl)c4)nc3-c3ccc(OC)cc3)on2)cc1` .
## Output inactive

## Input Tell me the recorded outcome of this test for O=C1C=CC2(O)OC/C(=C\c3ccccc3)C(O)=C2C1=O (centres undefined) .
## Output active

## Input Tell me the recorded outcome of this test for `CN(C)c1ccc(CNCCO)cc1` .
## Output inactive

## Input Tell me the recorded outcome of this test for `Cc1nc2ccccc2c(/C=C/c2ccc(F)cc2)c1C(=O)/C=C/c1ccccc1` .
## Output inactive

## Input Tell me the recorded outcome of this test for `O=S(=O)(Nc1ccc2ccccc2c1)c1ccc(-c2cnc(C3CC3)o2)cc1` .
## Output inactive

## Input Tell me the recorded outcome of this test for `Fc1cccc(-c2nc(-c3c[nH]c4ncccc34)cs2)c1` .
## Output inactive

## Input Tell me the recorded outcome of this test for CC(O)CNC(Cc1ccccc1)c1ccc2c(c1)OCO2 (centres undefined) .
## Output inactive

## Input Tell me the recorded outcome of this test for `c1ccc(-c2c(-c3ccccc3)[n+](Cc3ccc4ccccc4c3)cn2Cc2ccc3ccccc3c2)cc1` .
## Output active

## Input Tell me the recorded outcome of this test for `N#Cc1nn(-c2cc(=O)[nH]c3ccc(Br)cc23)c(N)c1C#N` .
## Output inactive

## Input Tell me the recorded outcome of this test for `Cc1nc([P+](c2ccccc2)(c2ccccc2)c2ccccc2)c(N2CCCCC2)o1` .
## Output inactive

## Input Tell me the recorded outcome of this test for `CCCCCCCCCCOC(=O)c1nn(C(C)=O)c2cc(C)c(C)cc12` .
## Output inactive

## Input Tell me the recorded outcome of this test for `Cc1ccc(S(=O)(=O)N2CCCN(c3nc(-c4ccccc4)nc4nc(-c5ccccc5)oc34)CC2)cc1` .
## Output inactive

## Input Tell me the recorded outcome of this test for Nc1cccc(-c2ccc(COc3ccc(CC4SC(=O)NC4=O)cc3)cc2)c1 (centres undefined) .
## Output inactive

## Input Tell me the recorded outcome of this test for `CCN(CC)c1ccc(-c2cc(-c3cc(OC)c(OC)c(OC)c3)nc(N3CCC(O)CC3)c2C#N)cc1` .
## Output active

## Input Tell me the recorded outcome of this test for C=C1C(=O)O[C@@H]2C3C(=C(C)CC[C@@H]12)CC1O[C@]13C (some centres undefined) .
## Output inactive

## Input Tell me the recorded outcome of this test for `Cc1c2cnccc2c(C)c2c1c1cc(CO)ccc1n2C` .
## Output active

## Input Tell me the recorded outcome of this test for `O=C1CCCCN1c1ccc(C2=NCCCN2)cc1` .
## Output inactive

## Input Tell me the recorded outcome of this test for `Brc1ccc(Nc2nc(Nc3cnc4ccccc4c3)c3[nH]cnc3n2)cc1` .
## Output inactive

## Input Tell me the recorded outcome of this test for `CCOC(=O)/C=C1\S/C(=N\Nc2cc(=O)[nH]c3ccc(Br)cc23)N(c2ccccc2)C1=O` .
## Output inactive

## Input Tell me the recorded outcome of this test for CCN1C(=O)N(CC)C2C1NN=c1s/c(=C\c3ccc(OC)cc3)c(=O)n12 (centres undefined) .
## Output inactive

## Input Tell me the recorded outcome of this test for `O=C(c1c[nH]c2ccccc12)c1n[nH]c(=S)n1-c1ccc([N+](=O)[O-])cc1` .
## Output inactive

## Input Tell me the recorded outcome of this test for COc1cc2c(c(OC)c1OC)C(=O)CC(c1cccc(C(=O)Nc3ccc(C#N)cc3)c1)O2 (centres undefined) .
## Output inactive

###

Field: growth. Provide a value for each of the molecules that follow.
Tested on: HT29 colon
testSummary: NCI-60 one-dose screen, 48 h (100 = growth as untreated, 0 = no growth, -100 = all killed)
details: 10 µM unless noted
Compounds without any hit were thinned out: in the full panel of roughly 83,000, 20% have a hit. The source made the active and inactive calls. Rule for the calls: active = growth percent below 10; inactive = the rest.

## Input GET /values?readout=growth&item= `CCN(CC)CCOc1ccc2ccc(=O)oc2c1`
## Output 102% (inactive)

## Input GET /values?readout=growth&item= `O=c1cc(-c2ccccc2)nc(SCc2nc3cc(Cl)c(Cl)cc3[nH]2)[nH]1`
## Output 96.4% (inactive)

## Input GET /values?readout=growth&item= `Cc1cc(N2CCN(CC(=O)Nc3ccc4c(ccn4Cc4ccccc4)c3)CC2)nc(N2CCOCC2)n1`
## Output 67.3% (inactive)

## Input GET /values?readout=growth&item= `COC(=O)c1ccc2cc(OC)c(OC)cc2c1`
## Output 90.7% (inactive)

## Input GET /values?readout=growth&item= `O=C(Nc1cc(Cl)cc(Cl)c1)Oc1c(Cl)c(Cl)c(Cl)c(Cl)c1Cl`
## Output 73.2% (inactive)
